Source: paper PMC12655527

test: Pharmacokinetic parameters (Tmax, AUClast, Cmax) of DD217 in phase II trial patients; format: in vivo, human (patients undergoing knee replacement surgery); settings: human, plasma, oral, 60 mg; CYP2C8 rs11572080 C/T (n 2); read-out: Cmax (SD)

{"Molecule": "CC(=N)N(C)c1ccc(C(=O)Nc2ccc(C)cc2C(=O)Nc2ccc(Cl)cn2)cc1.Cl [DD217]", "Cmax / ng/mL": 5.69}

----------
experiment: Pharmacokinetic parameters (Tmax, AUClast, Cmax) of DD217 in phase II trial patients; assay type: in vivo, human (patients undergoing knee replacement surgery); settings: human, plasma, im, 40 mg; CYP2C9 *1/*2, *1/*3, IM (n = 6); mean ± SD; read-out: Cmax
Quantity: Cmax (ng/mL)

{"Line notation": "CC(=N)N(C)c1ccc(C(=O)Nc2ccc(C)cc2C(=O)Nc2ccc(Cl)cn2)cc1.Cl", "Result number": 3.72}
